This collection of values is drawn from paper PMC9102502.

Molecular target: BuChE (Homo sapiens, UniProt P06276)
Sequence (P06276 29-602): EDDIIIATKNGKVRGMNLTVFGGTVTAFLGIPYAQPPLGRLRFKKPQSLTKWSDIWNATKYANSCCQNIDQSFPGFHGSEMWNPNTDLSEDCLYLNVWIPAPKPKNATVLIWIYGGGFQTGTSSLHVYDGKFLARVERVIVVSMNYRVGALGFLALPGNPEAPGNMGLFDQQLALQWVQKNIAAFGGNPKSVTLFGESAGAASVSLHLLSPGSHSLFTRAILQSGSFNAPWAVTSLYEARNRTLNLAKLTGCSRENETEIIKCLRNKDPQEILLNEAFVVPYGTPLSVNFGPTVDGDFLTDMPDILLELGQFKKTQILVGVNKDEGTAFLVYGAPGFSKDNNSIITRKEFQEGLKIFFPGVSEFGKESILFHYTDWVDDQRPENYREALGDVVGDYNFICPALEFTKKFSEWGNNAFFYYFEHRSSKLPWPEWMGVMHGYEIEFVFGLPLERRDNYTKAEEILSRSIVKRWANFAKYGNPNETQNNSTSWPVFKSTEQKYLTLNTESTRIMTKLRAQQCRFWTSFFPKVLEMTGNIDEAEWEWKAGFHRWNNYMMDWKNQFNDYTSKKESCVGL
Assay: Synergism of antipsychotics with donepezil/rivastigmine (binary mixtures), BuChE;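 further: combination index derived by median-effect analysis of combined drug effects on the cholinesterase, with values below 1 meaning synergism, exactly 1 additivity and above 1 antagonism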
Conditions: donepezil 100 μmol/L + antipsychotic at TPCmax; ComboSyn
Think of 0.9 as a floor: if CI (combination index), BuChE stands on it or above, it is 1; beneath it, -1.

Examples with answers:
# Molecule, Class
rows = [
    ("O=C(CCCN1CCC(n2c(O)nc3ccccc32)CC1)c1ccc(F)cc1", -1),
    ("O=c1[nH]c2ccccc2n1C1CCN(CCCC(c2ccc(F)cc2)c2ccc(F)cc2)CC1 [Pimozide, pimozide]", -1),
    ("OC1(c2ccc(Cl)c(C(F)(F)F)c2)CCN(CCCC(c2ccc(F)cc2)c2ccc(F)cc2)CC1", 1),
]

Now consider the entry below.
Does O=C(CCCN1CCC(O)(c2ccc(Cl)cc2)CC1)c1ccc(F)cc1 have a reported CI (combination index), BuChE of at least 0.9? -1
